Experiment: Average particle diameter of preparation (Zetasizer Nano ZS)
Assay type: physicochemical
Conditions: average particle diameter of cationic lipid/nucleic acid complex; Example 118 preparation: compound/PEG-DMPE Na/DSPC/cholesterol with apo-b siRNA
This section presents molecules with their documented Particle diameter of Preparetion values.
measured-property: Particle diameter of Preparetion (nm)

- molecule: "CCCCCCCC/C=C\\CCCCCCCCOCCN(C)CCOCCCCCCCC/C=C\\CCCCCCCC [Compound 33]"
  measured-property: "Particle diameter of Preparetion"
  value-reported: 152.1
- molecule: "CCCCC/C=C\\C/C=C\\CCCCCCCCO[C@@H]1CN(C(=O)CN(C)C)C[C@H]1OCCCCCCCC/C=C\\C/C=C\\CCCCC [Compound 25]"
  measured-property: "Particle diameter of Preparetion"
  value-reported: 126.0
- molecule: "CCCCCCCC/C=C\\CCCCCCCCOCCN(CCOCCCCCCCC/C=C\\CCCCCCCC)CCC(N)=O [Compound 84]"
  measured-property: "Particle diameter of Preparetion"
  value-reported: 120.2
- molecule: "CCCCC/C=C\\C/C=C\\CCCCCCCC(=O)OC[C@@H]1C[N+](C)(C)C[C@H]1COC(=O)CCCCCCC/C=C\\C/C=C\\CCCCC.[Cl-] (relative stereo) [Compound 114]"
  measured-property: "Particle diameter of Preparetion"
  value-reported: 108.2
- molecule: "CCCCC/C=C\\C/C=C\\CCCCCCCC(=O)OCCNCCOC(=O)CCCCCCC/C=C\\C/C=C\\CCCCC [Compound 74]"
  measured-property: "Particle diameter of Preparetion"
  value-reported: 128.4
- molecule: "CCCCCCCC/C=C\\CCCCCCCC(=O)OCCN(CCOC(=O)CCCCCCC/C=C\\CCCCCCCC)C(=O)CN [Compound 95]"
  measured-property: "Particle diameter of Preparetion"
  value-reported: 128.3
- molecule: "CCCCCCCC/C=C\\CCCCCCCCO[C@@H]1CN(CC)C[C@H]1OCCCCCCCC/C=C\\CCCCCCCC [Compound 18]"
  measured-property: "Particle diameter of Preparetion"
  value-reported: 146.4
- molecule: "CCCC/C=C\\CCCCCCCCOCCNCCOCCCCCCCC/C=C\\CCCC [Compound 68]"
  measured-property: "Particle diameter of Preparetion"
  value-reported: 132.4
- molecule: "CCCCC/C=C\\C/C=C\\CCCCCCCCO[C@@H]1CN(CCCN(C)C)C[C@H]1OCCCCCCCC/C=C\\C/C=C\\CCCCC [Compound 59]"
  measured-property: "Particle diameter of Preparetion"
  value-reported: 116.7
- molecule: "CCCCC/C=C\\C/C=C\\CCCCCCCCO[C@H]1C[N+](C)(C)C[C@@H]1OCCCCCCCC/C=C\\C/C=C\\CCCCC [Compound 52]"
  measured-property: "Particle diameter of Preparetion"
  value-reported: 118.9
- molecule: "CCCCCCCC/C=C\\CCCCCCCCO[C@@H]1CNC[C@H]1OCCCCCCCC/C=C\\CCCCCCCC [Compound 4]"
  measured-property: "Particle diameter of Preparetion"
  value-reported: 160.6
- molecule: "CCCCCCCC/C=C\\CCCCCCCC(=O)OCCN(CCOC(=O)CCCCCCC/C=C\\CCCCCCCC)C(=O)OCCCN(C)C [Compound 116]"
  measured-property: "Particle diameter of Preparetion"
  value-reported: 154.1
- molecule: "CCCCC/C=C\\C/C=C\\CCCCCCCCO[C@H]1CN(C)C[C@@H]1OCCCCCCCC/C=C\\C/C=C\\CCCCC (stereo in doubt) [Compound 50]"
  measured-property: "Particle diameter of Preparetion"
  value-reported: 129.2
- molecule: "CCCCCC/C=C\\CCCCCCCCOC[C@@H]1CN(C)C[C@H]1COCCCCCCCC/C=C\\CCCCCC (relative stereo) [Compound 51]"
  measured-property: "Particle diameter of Preparetion"
  value-reported: 123.9
- molecule: "CCCCC/C=C\\C/C=C\\CCCCCCCCCCO[C@@H]1CNC[C@H]1OCCCCCCCCCC/C=C\\C/C=C\\CCCCC [Compound 8]"
  measured-property: "Particle diameter of Preparetion"
  value-reported: 143.8
